assayEndpoint: melting point

Examples with answers:
# molecule, assayEndpoint, result
records = [
    ("Cn1nc(-c2ccncc2)c2ccccc2c1=O", "melting point", "173 to 174 °C"),
    ("CC(C)=NN=C(N)Nc1c(Cl)cccc1Cl", "melting point", "205 to 210 °C"),
    ("CCCCc1nn(-c2ccc(C(F)(F)F)cn2)cc1/C=C/C(=O)OCC", "melting point", "84 to 85 °C"),
]

Give its melting point value. Item: `c1ccc(Nc2ncnc3cnccc23)cc1`
161 °C

Consider the molecule `O=C(O)c1cn(-c2cccc(I)c2)cn1` and give its measured melting point.
229 to 230 °C

* * *

assayEndpoint: melting point

# molecule, assayEndpoint, result
records = [
    ("CC(C)(C(=O)Cl)C(=S)Cl", "melting point", "112 to 114 °C"),
    ("CN(Cc1nc(-c2cc(C(C)(C)C)c(O)c(C(C)(C)C)c2)cs1)C(=O)OC(C)(C)C", "melting point", "126 to 127 °C"),
    ("COc1ccc2nc(-c3cccc(F)c3)cc(OP(=O)(O)O)c2c1OP(=O)(O)O", "melting point", "120 to 122 °C"),
]

Okay, next one:
What melting point value was documented for this molecule, `Cc1cccc(N=c2scc(-c3ccc(Cl)c(S(=O)(=O)N(C)C)c3)n2C)c1C` ?
226 °C

* * *

assayEndpoint: melting point

# compound, melting point
measured = [
    ("COC(=O)CCCc1cc2cc(C(F)(F)F)ccc2n1S(=O)(=O)c1ccc2ncsc2c1", "117 to 121 °C"),
    ("COc1ccc(Cl)cc1C(=O)NCCC1CCN(S(=O)(=O)NC(=S)NC2CCCCC2)CC1", "146 to 148 °C"),
    ("Nc1nnc(C(F)(F)F)c2c1cc1cccc(CCCN3CC4CCC(CC4)C3)n12", "252 to 253 °C"),
]

Requested field: melting point. Item: `O=c1cc(C(F)(F)F)nc(Nc2cc(C(F)(F)F)ccc2C(F)(F)F)n1C1CCCCC1`
154 to 156 °C

# input compound: CCC(C(=O)OC)[C@@H](C)O (stereo partly specified) ; wanted: its melting point
72.4 to 73.3 °C

Form field: reported melting point of CC(N)c1c[nH]c(-c2ccccc2)n1 (stereo unspecified)
30 °C

So what does the record say about melting point for `Cc1ccc(-c2ccc(O)cc2)c(-c2ccc(OCCN3CCCCC3)cc2)n1` ?
90 to 100 °C

Data request, read-out melting point, for `Cc1csc(-c2ncccc2C(=O)c2ccccn2)c1`
122 to 123 °C

What melting point value was documented for this compound, `CC(=O)OCCCCN(C)CCN(C)C(=O)[C@@H]1CCCN1S(=O)(=O)c1ccc(Cl)c(COc2cccc3c(-n4ccnc4)cc(C)nc23)c1Cl` ?
76 °C

Need melting point, item `CN1c2ccccc2S(=O)(=O)c2cc(C=Cc3ccc(-c4ccc(C=Cc5ccc6c(c5)S(=O)(=O)c5ccccc5N6C)cc4)cc3)ccc21`
360 °C

Request the reported melting point associated with COc1ccccc1C1(O[Si](C)(C)C)C(=O)Nc2ccc(Cl)cc21 (stereo unspecified)
185 to 187 °C

Query (compound): CC(C(=O)O)c1ccc(-c2ccccc2[N+](=O)[O-])cc1 (stereo unspecified) ; field requested: melting point
116 to 119 °C

So what does the record say about melting point for `O=[N+]([O-])c1c(OC(F)(F)F)ccc2nc(Cl)sc12` ?
64 °C

Param item = COc1ccc(S(=O)(=O)N2c3ccccc3-c3ccccc3C2C)cc1 (stereo unspecified) ; retrieve measured melting point.
167 to 169 °C

Endpoint output: melting point of `CCCc1c(CC)[nH]c(C(=O)OCC)c1C` . Value?
86 to 87 °C

For `O=[N+]([O-])c1cccc(COc2cccc3cccnc23)c1` , what is its reported melting point?
98 to 99 °C

Can you share its melting point? I mean this compound: `CC1(C)CN=C2N(C1)c1ccc(Br)cc1C21OCCCO1`
151 to 153 °C

Please report the recorded melting point for `Nc1ccccc1SCC1=NOCN1` .
108 °C

Item OC1CCCCC1n1c(Br)nc2cc(Cl)c(Cl)cc21 (stereo unspecified) has what recorded melting point?
186 to 188 °C

What value of melting point has been reported for the following compound? `CC(C)Oc1c(CO)cnc2c(C(F)(F)F)cccc12`
73 to 74 °C

Reported melting point for `CCCCn1c(=S)sc2c(=N)n(NC(N)=O)cnc21` : what is it?
222 °C
